- TESTED_ON: human P2X3 receptor (Homo sapiens (Human), UniProt P56373)
- Sequence (P56373 whole entry): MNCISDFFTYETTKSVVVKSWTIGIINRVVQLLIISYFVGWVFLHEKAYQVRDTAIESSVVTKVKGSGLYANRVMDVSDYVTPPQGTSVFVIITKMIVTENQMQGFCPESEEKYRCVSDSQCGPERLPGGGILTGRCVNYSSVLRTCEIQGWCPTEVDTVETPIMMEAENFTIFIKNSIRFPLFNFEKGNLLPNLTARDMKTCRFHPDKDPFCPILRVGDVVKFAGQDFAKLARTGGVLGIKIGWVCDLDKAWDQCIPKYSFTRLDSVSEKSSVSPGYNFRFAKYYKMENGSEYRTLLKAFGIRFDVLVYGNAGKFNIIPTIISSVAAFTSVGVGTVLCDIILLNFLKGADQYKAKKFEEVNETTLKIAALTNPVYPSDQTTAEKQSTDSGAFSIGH
- METHOD_DESCRIPTION: P2X3 receptor inhibition, ATP-evoked Fluo-3 calcium fluorescence (FDSS 3000)
- CONDITION: C6BU-1 cell transfected with human P2X3 receptor gene; ATP-evoked Fluo-3 fluorescence
Readings of IC50 for the listed compounds

COMPOUND: CCC(CC)C1C(C(=O)c2ccc(C(=O)NCCO)cc2)=C(O)C(=O)N1c1ccc(-c2ccon2)cc1 (centres unmarked)
TESTED_ON: human P2X3 receptor (Homo sapiens (Human), UniProt P56373)
UOM: nM
IC50: 14
--
COMPOUND: COc1ccc(C(=O)C2=C(O)C(=O)N(c3ccc(-c4cc(C)on4)cc3)C2c2ccccc2OC)cc1 (centres unmarked)
TESTED_ON: human P2X3 receptor (Homo sapiens (Human), UniProt P56373)
UOM: nM
IC50: 42
--
COMPOUND: CCOc1ncccc1C1C(C(=O)C(C)C)=C(O)C(=O)N1c1ccc(-c2ccsc2)cc1 (centres unmarked)
TESTED_ON: human P2X3 receptor (Homo sapiens (Human), UniProt P56373)
UOM: nM
IC50: 13
--
COMPOUND: COc1ccccc1C1C(C(=O)C(C)(C)C)=C(O)C(=O)N1c1ccc(-c2ccco2)cc1 (centres unmarked)
TESTED_ON: human P2X3 receptor (Homo sapiens (Human), UniProt P56373)
UOM: nM
IC50: 92
--
COMPOUND: CC(C)c1n[nH]c2c1C(c1ccccc1OCc1nnn[nH]1)N(c1ccc(-c3ccsc3)cc1)C2=O (centres unmarked)
TESTED_ON: human P2X3 receptor (Homo sapiens (Human), UniProt P56373)
UOM: nM
IC50: 3
--
COMPOUND: CC(C)C(=O)C1=C(O)C(=O)N(c2ccc(-c3ccon3)cc2)C1c1cccnc1OCCO (centres unmarked)
TESTED_ON: human P2X3 receptor (Homo sapiens (Human), UniProt P56373)
UOM: nM
IC50: 659
--
COMPOUND: COc1ccccc1C1C(C(=O)C(C)C)=C(O)C(=O)N1c1ccc(-c2ccsc2)c(O)c1 (centres unmarked)
TESTED_ON: human P2X3 receptor (Homo sapiens (Human), UniProt P56373)
UOM: nM
IC50: 185
--
COMPOUND: Cc1cc(-c2ccc(N3C(=O)C(O)=C(C(=O)C(C)C)C3c3cccnc3OCCCO)cc2)cs1 (centres unmarked)
TESTED_ON: human P2X3 receptor (Homo sapiens (Human), UniProt P56373)
UOM: nM
IC50: 70
--
COMPOUND: COc1ccccc1C1C(C(=O)C(C)(C)C)=C(O)C(=O)N1c1ccc(-c2cc[nH]c2)cc1 (centres unmarked)
TESTED_ON: human P2X3 receptor (Homo sapiens (Human), UniProt P56373)
UOM: nM
IC50: 301
--
COMPOUND: COc1ccccc1C1c2c(C(C)(C)C)n[nH]c2C(=O)N1c1ccc(-c2ccc(C)s2)cc1 (centres unmarked)
TESTED_ON: human P2X3 receptor (Homo sapiens (Human), UniProt P56373)
UOM: nM
IC50: 27
--
COMPOUND: COc1ccccc1C1c2c(C(C)(C)C)n[nH]c2C(=O)N1c1ccc(-c2cccn2C)cc1 (centres unmarked)
TESTED_ON: human P2X3 receptor (Homo sapiens (Human), UniProt P56373)
UOM: nM
IC50: 811
--
COMPOUND: CC(C)(C)c1n[nH]c2c1C(c1ccccc1OCCNS(C)(=O)=O)N(c1ccc(-c3ccsc3)cc1)C2=O (centres unmarked)
TESTED_ON: human P2X3 receptor (Homo sapiens (Human), UniProt P56373)
UOM: nM
IC50: 7
--
COMPOUND: COc1cc(F)ccc1C1c2c(C(C)(C)C)n[nH]c2C(=O)N1c1ccc(-c2ccon2)cc1 (centres unmarked)
TESTED_ON: human P2X3 receptor (Homo sapiens (Human), UniProt P56373)
UOM: nM
IC50: 46
--
COMPOUND: CC(C)Oc1ccccc1C1c2c(C(C)(C)C)n[nH]c2C(=O)N1c1ccc(-c2ccon2)cc1 (centres unmarked)
TESTED_ON: human P2X3 receptor (Homo sapiens (Human), UniProt P56373)
UOM: nM
IC50: 21
--
COMPOUND: COCCOc1cc(F)ccc1C1C(C(=O)C(C)C)=C(O)C(=O)N1c1ccc(-c2ccsc2)cc1 (centres unmarked)
TESTED_ON: human P2X3 receptor (Homo sapiens (Human), UniProt P56373)
UOM: nM
IC50: 7
--
COMPOUND: COc1ccc(C(=O)C2=C(O)C(=O)N(c3ccc(-c4cc(C)no4)cc3)C2c2ccccc2OC)cc1 (centres unmarked)
TESTED_ON: human P2X3 receptor (Homo sapiens (Human), UniProt P56373)
UOM: nM
IC50: 40
--
COMPOUND: COc1ncccc1C1C(C(=O)C(C)(C)C)=C(O)C(=O)N1c1ccc(SC)cc1 (centres unmarked)
TESTED_ON: human P2X3 receptor (Homo sapiens (Human), UniProt P56373)
UOM: nM
IC50: 434
--
COMPOUND: COc1ccccc1C1C(S(C)(=O)=O)=C(O)C(=O)N1c1ccc(-c2ccc(C)o2)cc1 (centres unmarked)
TESTED_ON: human P2X3 receptor (Homo sapiens (Human), UniProt P56373)
UOM: nM
IC50: 467
--
COMPOUND: COc1ccccc1C1c2c(C(C)(C)c3ccccc3)n[nH]c2C(=O)N1c1ccc(-c2ccon2)cc1 (centres unmarked)
TESTED_ON: human P2X3 receptor (Homo sapiens (Human), UniProt P56373)
UOM: nM
IC50: 113
--
COMPOUND: Cc1nc(-c2ccc(N3C(=O)C(O)=C(C(=O)C(C)C)C3c3ccccc3OCCO)cc2)no1 (centres unmarked)
TESTED_ON: human P2X3 receptor (Homo sapiens (Human), UniProt P56373)
UOM: nM
IC50: 342

----------
- TESTED_ON: human P2X3 receptor (Homo sapiens (Human))
- METHOD_DESCRIPTION: P2X3 receptor inhibition, ATP-evoked Fluo-3 calcium fluorescence (FDSS 3000)
- CONDITION: C6BU-1 cell transfected with human P2X3 receptor gene; ATP-evoked Fluo-3 fluorescence
pIC50: −log10 of the molar value.

COMPOUND: CC(C)c1n[nH]c2c1C(c1ccccc1NC(N)=O)N(c1ccc(-c3ccsc3)cc1)C2=O (stereo not drawn) [II-087]
pIC50: 8.05
//
COMPOUND: COc1ncccc1C1c2c(C(C)(C)C)n[nH]c2C(=O)N1c1ccc(-c2cccs2)cc1 (stereo not drawn) [II-224]
pIC50: 7.51
//
COMPOUND: Cc1ccc(-c2ccc(N3C(=O)C(O)=C(C(=O)CC(C)C)C3c3ccccc3OC(F)(F)F)cc2)s1 (stereo not drawn) [Compound I-338]
pIC50: 6.83

----------
- TESTED_ON: human P2X3 receptor (Homo sapiens (Human), UniProt P56373)
- METHOD_DESCRIPTION: P2X3 receptor inhibition, ATP-evoked Fluo-3 calcium fluorescence (FDSS 3000)
- CONDITION: C6BU-1 cell transfected with human P2X3 receptor gene; ATP-evoked Fluo-3 fluorescence
pIC50: −log10 of the molar value.
QUANTITY_KIND: pIC50

COMPOUND: COCCOc1cc(F)ccc1C1C(C(=O)C(C)C)=C(O)C(=O)N1c1ccc(-c2noc(C)n2)cc1 (centres unmarked) [Compound I-369]
MEAS_VALUE: 7.04

COMPOUND: COCCOc1ccccc1C1C(C(=O)C(C)(C)C)=C(O)C(=O)N1c1ccc(-c2nc(C)no2)cc1 (centres unmarked) [Compound I-128]
MEAS_VALUE: 6.81

COMPOUND: Cc1ccc(-c2ccc(N3C(=O)C(O)=C(C(=O)C(C)C)C3c3ccccc3C(=O)N(C)CCO)cc2)o1 (centres unmarked) [Compound I-585]
MEAS_VALUE: 6.80

COMPOUND: COCCOc1ccccc1C1c2c(C(C)(C)CO)n[nH]c2C(=O)N1c1ccc(-c2ccon2)cc1 (centres unmarked) [II-132]
MEAS_VALUE: 6.85

COMPOUND: CC(C)(C)C(=O)C1=C(O)C(=O)N(c2ccc(-c3ccoc3)cc2)C1c1cccnc1OCCO (centres unmarked) [Compound I-165]
MEAS_VALUE: 7.02

----------
- TESTED_ON: human P2X3 receptor (Homo sapiens (Human), UniProt P56373)
- METHOD_DESCRIPTION: P2X3 receptor inhibition, ATP-evoked Fluo-3 calcium fluorescence (FDSS 3000)
- CONDITION: C6BU-1 cell transfected with human P2X3 receptor gene; ATP-evoked Fluo-3 fluorescence

MOLECULE: CC(C)(C)c1n[nH]c2c1C(c1cccnc1OCCO)N(c1ccc(-c3cccs3)cc1)C2=O (centres unmarked) [II-042]
IC50 [µM]: 0.01
--
MOLECULE: COCc1ccccc1C1C(C(=O)C(C)(C)C)=C(O)C(=O)N1c1ccc(-c2noc(C)n2)cc1 (centres unmarked) [Compound I-051]
IC50 [µM]: 0.277
--
MOLECULE: Cc1cc(-c2ccc(N3C(=O)C(O)=C(C(=O)C(C)C)C3c3ccccc3OCCO)cc2)cs1 (centres unmarked) [Compound I-256]
IC50 [µM]: 0.023
--
MOLECULE: CCN(C)C(=O)c1ccccc1C1C(C(=O)C(C)C)=C(O)C(=O)N1c1ccc(-c2ccc(C)o2)cc1 (centres unmarked) [Compound I-495]
IC50 [µM]: 0.059
--
MOLECULE: COCCOCc1ncccc1C1C(C(=O)C(C)(C)C)=C(O)C(=O)N1c1ccc(-c2ccsc2)cc1 (centres unmarked) [Compound I-168]
IC50 [µM]: 0.12
--
MOLECULE: COc1ccccc1C1C(C(=O)C(C)(C)C)=C(N)C(=O)N1c1ccc(-c2ccon2)cc1 (centres unmarked) [Compound I-102]
IC50 [µM]: 0.134
--
MOLECULE: CC(C)COc1ccccc1C1C(C(=O)C2CCCC2)=C(O)C(=O)N1c1ccc(-c2ccon2)cc1 (centres unmarked) [Compound I-513]
IC50 [µM]: 0.065
--
MOLECULE: COc1ncccc1C1c2c(C(C)(C)C)n[nH]c2C(=O)N1c1ccc(-c2nc(C)no2)cc1 (centres unmarked) [II-195]
IC50 [µM]: 0.944
